tested on: MCF7; test: Antiproliferative activity against human MCF7 cells at 30 uM after 72 hrs by MTT assay; type: functional; conditions: MCF7, 72 h
Outcome: yes for inhibition at 30 µM of at least 20%; no for anything lower.

Check if inhibition at 30 µM >= 20% (inclusive). Item: CC(C)(C)OC(=O)Nc1ccc(OCCCOc2no[n+]([O-])c2S(=O)(=O)c2ccccc2)c(C(=O)Oc2ccc(-c3cc(=S)ss3)cc2)c1 yes

Check if inhibition at 30 µM >= 20% (inclusive). Item: CC(C)(C)OC(=O)Nc1ccc(OCCOCCOc2no[n+]([O-])c2S(=O)(=O)c2ccccc2)c(C(=O)Oc2ccc(-c3cc(=S)ss3)cc2)c1 yes

Check if inhibition at 30 µM >= 20% (inclusive). Item: Nc1ccc(OC(=O)CCCO[N+](=O)[O-])c(C(=O)Oc2ccc(-c3cc(=S)ss3)cc2)c1 no

Check if inhibition at 30 µM >= 20% (inclusive). Item: O=C(Nc1cccc(Cl)c1)Nc1ccc(OC(=O)CCCO[N+](=O)[O-])c(C(=O)Oc2ccc(-c3cc(=S)ss3)cc2)c1 no

Check if inhibition at 30 µM >= 20% (inclusive). Item: O=C(Nc1ccc(OC(=O)CCCO[N+](=O)[O-])c(C(=O)Oc2ccc(-c3cc(=S)ss3)cc2)c1)Nc1ccc(F)cc1F no

Check if inhibition at 30 µM >= 20% (inclusive). Item: O=C(Nc1ccc(F)cc1)Nc1ccc(OC(=O)CCCO[N+](=O)[O-])c(C(=O)Oc2ccc(-c3cc(=S)ss3)cc2)c1 no
